Each recorded value in this set is attributed to patent US20200087400A1.

- Measured on: T1, control peptide A2E-1/HLA-A*02:01 complex on T2 cells (member of the P19 mixture) (human)
- T1 construct: Loaded on T2 cells as part of the mixture of 19 control peptides
- Method description: flow cytometry, phage on T2 cells
Readout label: binding result

1. PSA146/HLA-A*02:01-specific scFv phage clone #12 (scFv, V domains shown) VH: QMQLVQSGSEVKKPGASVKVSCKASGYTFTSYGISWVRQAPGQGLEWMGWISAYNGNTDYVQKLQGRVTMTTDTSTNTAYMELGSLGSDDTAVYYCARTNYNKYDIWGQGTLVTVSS VL: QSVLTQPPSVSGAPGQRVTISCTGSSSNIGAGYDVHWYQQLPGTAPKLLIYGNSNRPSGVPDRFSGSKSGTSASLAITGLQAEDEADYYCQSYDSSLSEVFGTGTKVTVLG | no binding
2. PSA146/HLA-A*02:01-specific scFv phage clone #17 (scFv, V domains shown) VH: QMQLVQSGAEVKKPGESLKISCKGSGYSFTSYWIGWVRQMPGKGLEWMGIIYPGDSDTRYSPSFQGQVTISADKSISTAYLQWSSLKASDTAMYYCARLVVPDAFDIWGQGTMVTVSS VL: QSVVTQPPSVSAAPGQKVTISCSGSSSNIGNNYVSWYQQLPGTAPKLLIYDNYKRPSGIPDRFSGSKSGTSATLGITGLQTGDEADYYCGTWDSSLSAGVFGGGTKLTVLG | no binding
